# Tested System: T1, cynomolgus CD40 antigen (ACROBiosystems) (cynomolgus, UniProt G7PG38 21-193)
# T1 construct: Bought antigen coated on ELISA plates; construct not described
# Assay Text: ELISA, coated antigen
Reported Property: pEC50
pEC50 is defined as minus the log10 of a concentration measured in mol/L.

Look up pEC50 for this binder: anti-CD40 monoclonal antibody 1655CD (antibody, human IgG2, kappa, V domains shown) VH: EVQLVESGGGLVQPGGSLRLSCAASGFTFSNYYMSWVRQAPGKGLEWVGFIRNKANAYTTEYAASVKGRFTISRDNSKSTLYLQMNSLRAEDTAVYYCARYGGLKIGWYFDLWGQGTLVTVSS VL: DIQMTQSPSSLSASVGDRVTITCRASQTISSYLNWYQQKPGKAPKLLIYYTSTLQSGVPSRFSGSGSGTDYTLTISSLQPEDFATYYCQQGNAYPWTFGGGTKVEIKR
11.05

Requested read-out: pEC50. Entry: anti-CD40 monoclonal antibody 1609CD (antibody, human IgG2, kappa, V domains shown) VH: EVQLVESGGGLVQPGGSLRLSCAASGFTFSNYYMSWVRQAPGKGLEWVGFIRNKANGYTTEYAASVKGRFTISRDNSKSTLYLQMNSLRAEDTAVYYCARYGGLKIGWYFDLWGQGTLVTVSS VL: DIQMTQSPSSLSASVGDRVTITCRASQTISSYLNWYQQKPGKAPKLLIYYTSTLQSGVPSRFSGSGSGTDYTLTISSLQPEDFATYYCQQGNAYPWTFGGGTKVEIKR
10.70
